system: Escherichia coli; test: Antimicrobial activity against Escherichia coli ATCC 25922 incubated for 18 hrs by serial microdilution method; format: functional; settings: ATCC 25922, 18 h
MEASURED PROPERTY: MIC

{"columns": ["COMPOUND SMILES", "MEASURED PROPERTY", "TEST VALUE"],
 "data": [
  ["CO[C@H]1/C=C/O[C@@]2(C)Oc3c(C)c(O)c4c(O)c(c(CNC5CCN(CC(=O)O)CC5)c(O)c4c3C2=O)NC(=O)/C(C)=C\\C=C\\[C@H](C)[C@H](O)[C@@H](C)[C@@H](O)[C@@H](C)[C@H](OC(C)=O)[C@@H]1C", "MIC", "> 8 µg/mL"]
]}

Could you now look at the following molecule, please?
Output reported MIC of the molecule CO[C@H]1/C=C/O[C@@]2(C)Oc3c(C)c(O)c4c(O)c(c(CN5CCC(N6CCC(C(=O)O)CC6)CC5)c(O)c4c3C2=O)NC(=O)/C(C)=C\C=C\[C@H](C)[C@H](O)[C@@H](C)[C@@H](O)[C@@H](C)[C@H](OC(C)=O)[C@@H]1C on Escherichia coli.
> 8 µg/mL

---

Catalogue of MIC readings, one per entry.
test system: Staphylococcus epidermidis; assay: Antimicrobial activity against Staphylococcus epidermidis ATCC 12228 incubated for 18 hrs by serial microdilution method; format: functional; settings: ATCC 12228, 18 h
Lab book: enter the figure in µg/mL, no units written.

Give reported MIC value for CO[C@H]1/C=C/O[C@@]2(C)Oc3c(C)c(O)c4c(O)c(c(CNC5CCN(CC6CCCCC6)CC5)c(O)c4c3C2=O)NC(=O)/C(C)=C\C=C\[C@H](C)[C@H](O)[C@@H](C)[C@@H](O)[C@@H](C)[C@H](OC(C)=O)[C@@H]1C
0.125

Please report the measured MIC for CO[C@H]1/C=C/O[C@@]2(C)Oc3c(C)c(O)c4c(O)c(c(/C=N/N5CCOCC5)c(O)c4c3C2=O)NC(=O)/C(C)=C\C=C\[C@H](C)[C@H](O)[C@@H](C)[C@@H](O)[C@@H](C)[C@H](OC(C)=O)[C@@H]1C
0.25

// Input: CO[C@H]1/C=C/O[C@@]2(C)Oc3c(C)c(O)c4c(O)c(c(CN5CCN(c6ccncc6)CC5)c(O)c4c3C2=O)NC(=O)/C(C)=C\C=C\[C@H](C)[C@H](O)[C@@H](C)[C@@H](O)[C@@H](C)[C@H](OC(C)=O)[C@@H]1C . Output its MIC only.
0.5

State its MIC for this compound: CO[C@H]1/C=C/O[C@@]2(C)Oc3c(C)c(O)c4c(O)c(c(CN5CCN(Cc6ccc(F)cc6)CC5)c(O)c4c3C2=O)NC(=O)/C(C)=C\C=C\[C@H](C)[C@H](O)[C@@H](C)[C@@H](O)[C@@H](C)[C@H](OC(C)=O)[C@@H]1C
0.25

---

tested on: Enterococcus faecalis; test: Antimicrobial activity against Enterococcus faecalis ATCC 29212 incubated for 18 hrs by serial microdilution method; type: functional; conditions: ATCC 29212, 18 h
// MIC lookup, one value per entry

Use these answered entries as a reference point.
{"columns": ["MOLECULE", "ASSAYED SYSTEM", "MEASURED PROPERTY", "TEST VALUE"],
 "data": [
  ["CO[C@H]1/C=C/O[C@@]2(C)Oc3c(C)c(O)c4c(O)c(c(CNC5CCN(CC6CCCCC6)CC5)c(O)c4c3C2=O)NC(=O)/C(C)=C\\C=C\\[C@H](C)[C@H](O)[C@@H](C)[C@@H](O)[C@@H](C)[C@H](OC(C)=O)[C@@H]1C", "Enterococcus faecalis", "MIC", "4 µg/mL"],
  ["CO[C@H]1/C=C/O[C@@]2(C)Oc3c(C)c(O)c4c(O)c(c(CN5CCN(C(c6ccc(F)cc6)c6ccc(F)cc6)CC5)c(O)c4c3C2=O)NC(=O)/C(C)=C\\C=C\\[C@H](C)[C@H](O)[C@@H](C)[C@@H](O)[C@@H](C)[C@H](OC(C)=O)[C@@H]1C", "Enterococcus faecalis", "MIC", "> 8 µg/mL"],
  ["CO[C@H]1/C=C/O[C@@]2(C)Oc3c(C)c(O)c4c(O)c(c(CNC5CCN(S(C)(=O)=O)CC5)c(O)c4c3C2=O)NC(=O)/C(C)=C\\C=C\\[C@H](C)[C@H](O)[C@@H](C)[C@@H](O)[C@@H](C)[C@H](OC(C)=O)[C@@H]1C", "Enterococcus faecalis", "MIC", "> 8 µg/mL"],
  ["CO[C@H]1/C=C/O[C@@]2(C)Oc3c(C)c(O)c4c(O)c(c(CNCCN5CCCC5=O)c(O)c4c3C2=O)NC(=O)/C(C)=C\\C=C\\[C@H](C)[C@H](O)[C@@H](C)[C@@H](O)[C@@H](C)[C@H](OC(C)=O)[C@@H]1C", "Enterococcus faecalis", "MIC", "> 8 µg/mL"],
  ["CO[C@H]1/C=C/O[C@@]2(C)Oc3c(C)c(O)c4c(O)c(c(/C=N/N5CCCCCC5)c(O)c4c3C2=O)NC(=O)/C(C)=C\\C=C\\[C@H](C)[C@H](O)[C@@H](C)[C@@H](O)[C@@H](C)[C@H](OC(C)=O)[C@@H]1C", "Enterococcus faecalis", "MIC", "0.5 µg/mL"],
  ["CO[C@H]1/C=C/O[C@@]2(C)Oc3c(C)c(O)c4c(O)c(c(CNC5CCCNC5=O)c(O)c4c3C2=O)NC(=O)/C(C)=C\\C=C\\[C@H](C)[C@H](O)[C@@H](C)[C@@H](O)[C@@H](C)[C@H](OC(C)=O)[C@@H]1C (some centres undefined)", "Enterococcus faecalis", "MIC", "> 8 µg/mL"]
]}

Find the measured MIC of CO[C@H]1/C=C/O[C@@]2(C)Oc3c(C)c(O)c4c(O)c(c(CN5CCN(c6ncccc6C(F)(F)F)CC5)c(O)c4c3C2=O)NC(=O)/C(C)=C\C=C\[C@H](C)[C@H](O)[C@@H](C)[C@@H](O)[C@@H](C)[C@H](OC(C)=O)[C@@H]1C with Enterococcus faecalis as test system.
> 8 µg/mL

Tell me MIC of CO[C@H]1/C=C/O[C@@]2(C)Oc3c(C)c(O)c4c(O)c(c(/C=N/N5CCCC5)c(O)c4c3C2=O)NC(=O)/C(C)=C\C=C\[C@H](C)[C@H](O)[C@@H](C)[C@@H](O)[C@@H](C)[C@H](OC(C)=O)[C@@H]1C when tested on Enterococcus faecalis.
4 µg/mL

Supply MIC measured with Enterococcus faecalis for CO[C@H]1/C=C/O[C@@]2(C)Oc3c(C)c(O)c4c(O)c(c(CN5CCN(Cc6c(C)cc(C)cc6C)CC5)c(O)c4c3C2=O)NC(=O)/C(C)=C\C=C\[C@H](C)[C@H](O)[C@@H](C)[C@@H](O)[C@@H](C)[C@H](OC(C)=O)[C@@H]1C .
> 8 µg/mL
